assay: Restrictive medium S. cerevisiae growth inhibition, OD615, pilot screen of yeast lifespan reduction project, restrictive growth control (AID 706); details: OD615, 48 h, at 10 µM, stronger effect = higher value;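 note: modified DeaD lifespan yeast strain shifted to restrictive glucose medium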
The source made the active and inactive calls.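 Rule for the calls: active = growth inhibition above a set limit, 3 SD over mean compound inhibition, in both replicates (cut at about 43% in these data); inconclusive = above the limit in only one replicate; inactive = at or below the limit in both replicates.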
growth inhibition values by entry
MEASUREMENT_LABEL: growth inhibition

compound="CCSC1=C(C#N)C(c2ccccc2C)CC(=O)N1 (stereo unspecified)" measurement_label="growth inhibition" assay_value="-23.4% (inactive)"
compound=CC(C)c1ccc2c(c1)C(=O)NC(C)(C)C2 measurement_label="growth inhibition" assay_value="-11.3% (inactive)"
compound=CCOC(=O)c1cc2c(=O)n3ccccc3nc2n(CCOC)c1=NC(=O)C(C)(C)C measurement_label="growth inhibition" assay_value="-18.2% (inactive)"
compound=O=C(CSc1nc2c(c(=O)n1-c1ccc(Cl)cc1)SCC2)NCc1ccco1 measurement_label="growth inhibition" assay_value="-0.115% (inactive)"
compound=CC1CCN(c2nc3c(c(=O)n(C)c(=O)n3C)n2CCSc2ncccn2)CC1 measurement_label="growth inhibition" assay_value="-3.19% (inactive)"
compound="CC1CN(S(=O)(=O)c2ccc(C(=O)Nc3sc4c(c3C(N)=O)CCN(C)C4)cc2)CC(C)O1 (stereo unspecified)" measurement_label="growth inhibition" assay_value="-7.93% (inactive)"
compound=O=C1CCCc2sccc2N1 measurement_label="growth inhibition" assay_value="-3.71% (inactive)"
compound=CC(=O)OCCn1c(=O)c2cc3c(=O)n(CCOC(C)=O)c(=O)c3cc2c1=O measurement_label="growth inhibition" assay_value="-6.18% (inactive)"
compound=O=C(Cc1c(F)cccc1Cl)c1ccc(O)cc1O measurement_label="growth inhibition" assay_value="-0.825% (inactive)"
compound=CCOC(=O)c1c(/N=C/N(C)C)sc(C(=O)OC)c1C measurement_label="growth inhibition" assay_value="3.21% (inactive)"
compound="CC1CCN(S(=O)(=O)c2ccc3c(c2)oc(=O)n3CC(=O)N2c3ccccc3CC2C)CC1 (stereo unspecified)" measurement_label="growth inhibition" assay_value="-7.59% (inactive)"
